meta.source: paper PMC11162469

# Measured target: rat RXFP2 (Rattus norvegicus, UniProt F7EMH8)
# Sequence (F7EMH8 20-737): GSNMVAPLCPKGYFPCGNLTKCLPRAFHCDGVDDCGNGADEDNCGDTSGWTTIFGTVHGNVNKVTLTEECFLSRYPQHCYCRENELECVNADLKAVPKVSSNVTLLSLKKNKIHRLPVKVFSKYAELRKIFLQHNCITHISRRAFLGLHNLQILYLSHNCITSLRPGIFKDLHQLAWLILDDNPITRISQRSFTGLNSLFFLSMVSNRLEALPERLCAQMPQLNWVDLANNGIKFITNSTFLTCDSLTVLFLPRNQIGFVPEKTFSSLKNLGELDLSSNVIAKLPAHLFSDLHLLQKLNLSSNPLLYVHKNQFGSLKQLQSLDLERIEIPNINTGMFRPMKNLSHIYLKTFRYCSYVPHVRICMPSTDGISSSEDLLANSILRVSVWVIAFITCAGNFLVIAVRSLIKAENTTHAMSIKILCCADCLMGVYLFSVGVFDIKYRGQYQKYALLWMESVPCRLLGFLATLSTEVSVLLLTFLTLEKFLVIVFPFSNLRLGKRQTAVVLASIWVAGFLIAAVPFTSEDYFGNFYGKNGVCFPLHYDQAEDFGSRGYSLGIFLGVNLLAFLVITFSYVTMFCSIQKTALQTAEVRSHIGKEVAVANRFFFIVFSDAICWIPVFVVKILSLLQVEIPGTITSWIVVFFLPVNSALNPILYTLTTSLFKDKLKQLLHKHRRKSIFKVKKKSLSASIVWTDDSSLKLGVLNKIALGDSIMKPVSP
# Test summary: INSL3-stimulated CYP11B2 mRNA expression in H295R stably expressing rat RXFP2
# Format: cell-based
# Parameters: expressed in transfected cells
# Study conditions: INSL3 EC80 (3.5 nM), 48 h, qPCR; N = 2
Parameter measured: IC50 (nM)
# value in nM; strip the unit string

Specify IC50 for 3F1: RXFP2 monoclonal antibody from hybridoma, recombinantly expressed in a rat IgG2b backbone (antibody, V domains shown) VH: QVQLKESGPGLVAPSQSLSITCTVSGFSLTDYGVSWIRQPPGKGLEWLGVIWGGGSTDYNPALKSRLSISKDNSKSQVFLKMNSLQADDTAMYYCVKHEGYYAMDYWGQGTSVTVSS VL: DIQMTQSPASLSVSVGETVTITCRASENIYSNLAWYQQKQGKSPHLLVYAVTNLADGVPSRFSGSGSGTQYSLKINSLQSEDFGSYYCQHFWGTPYTFGGGTKLEIK and stop.
0.23
